Hey, just so you know, these numbers are from the supplement of paper PMC11865577.

System: TO-N3-2 (biotin conjugate)
Assay: pull-down binding Z-score (relative to library population); higher = stronger binding
Conditions: RNA library: Library-2
Form field: pull-down binding Z-score (one value per entry).

Query :: Which value of pull-down binding Z-score has been reported for CAGAGUCGUAUUUGUCUUAUGGGCACAUGGCUUUG [SHAPE_invivo_SARS-CoV-2_Motif_350] in the records?
Result :: -0.215

Query :: // next record UGUCAUUACUUUUAACUGUA [hsa-mir-548h-5]
Result :: -0.469

Query :: Do the same for GGGCUGUGACCACUGAAGUGGCAUUUGGCCU [IAV_invivo_M1_M2_7_Motif_9+IAV_invivo_M1_M2_7_Motif_9] please
Result :: 0.272

Query :: Same read-out for CCCAUUGGAGAGUCCCCCAAAGGAGUGGAGGAAAGUUCCAUUGGG [IAV_invivo_PA_3_Motif_26+IAV_invivo_PA_3_Motif_26] ?
Result :: 0.298

Query :: Please do the same for GCGCUGCCAGAAACUGGCUUAGCGC [bulge-UU] as well.
Result :: 0.338

More entries:
Query :: Form field: reported pull-down binding Z-score of UGAUAGUCAACAAACUGUUGGUCAACAAGACGGCAGUGAGGACAAUCA
Result :: -0.167

###

# pull-down binding Z-score values compiled below
System: TO-N3-2 (biotin conjugate)
Assay: pull-down binding Z-score (relative to library population); higher = stronger binding
Details: RNA library: Library-2
// keep it numeric: no unit symbol after the value

Query :: Can you look up the measured pull-down binding Z-score of GUUAUAAAUGGAGACAGGUGGUUUCUCAAUCGAUUUACCACAACUCUUAAUGAC for me?
Result :: -0.831

Query :: Check UGGGUUGUGUCAGUGUCAGACCUC [hsa-mir-146a] too.
Result :: 0.838

Query :: Continue with GAGUACCUUCCAACACGAGCUCUC [hsa-mir-3664]
Result :: 1.06

Query :: Now this one: GGCCAGCAGAGGCC [IAV_invivo_PA_3_Motif_7+IAV_invivo_PA_3_Motif_7]
Result :: -0.109

Query :: Let us now turn to CGCAGGGAAUGGAUAAUCUUGCCUGCG
Result :: -0.759

Query :: // same read-out, input: CCUUCUACCAAGUUAAGCAUACUCAUUAGAAGG [hsa-mir-3914-2]
Result :: -0.346

Next:
Query :: Returns the measured pull-down binding Z-score for the input sequence. Input: GUGACGCCGCGAAGUGCAC [hsa-mir-3147]
Result :: 0.997

###

Tested on: G-clamp-N3 (biotin conjugate)
Assay: pull-down binding Z-score (relative to library population); higher = stronger binding
Conditions: RNA library: Library-1 (pre-miRNA loops + repeats)
Mark condition met for reported pull-down binding Z-score of -0.2 or greater; mark condition not met for anything smaller.

Answered examples (5):
Query :: Tell me whether pull-down binding Z-score is at least -0.2 here: UCUUGAAUUUUUGCCAGUUCAAGA [hsa-mir-5197]
Result :: condition met

Query :: Moving on to UGCAUAAAUGAAGCUGAAUGA [hsa-mir-6134]
Result :: condition not met

Query :: Moving on to CCACUGGGAAUGCUCCCUGAGGACGUUAUAUGAGUG [hsa-mir-4319]
Result :: condition met

Query :: How about AGGAGUUCACU [hsa-mir-1183] ?
Result :: condition not met

Query :: Would you mind doing AUAUGAGCUUCAUUUAUACAUUUCAUAU [hsa-mir-556] as well?
Result :: condition not met

Further cases:
Query :: Reported pull-down binding Z-score at or above -0.2? UCUUUCAUUUUGGAUUUGACU [hsa-mir-766]
Result :: condition not met

Query :: What do you have for AGGGCUGGGAUUACUAAAGCCCU [hsa-mir-1266] ?
Result :: condition met
